ASSAY: inhibitors of intracellular T. cruzi growth, primary screen, luminescence, NIH3T3 host cells (AID 1885);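 note: signal also drops with host cell toxicity which is not excluded here; 0% = plate median of DMSO wells and 100% = zero luminescence signal; higher percent means less beta-gal luminescence so fewer parasites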
CONDITION CONTEXT: T. cruzi beta-gal in NIH3T3, luminescence, 90 h; hits give high values; concentration not given here
The campaign covered roughly 300,000 compounds. About 4,400 (1.5%) were called active. This is one part of a sample in which actives are shown more often than they occur.

COMPOUND | inhibition [%]
CCN(CC)c1ccc(S(=O)(=O)N2CCCCC2)cc1NC(=O)C1=COCCO1 | 61
Cc1ccc(-n2c(SCC(=O)N3c4ccccc4Sc4ccccc43)nnc2-c2ccncc2)cc1 | 63.1
O=C(Nc1ccc(S(=O)(=O)N2CCCC2)cc1Cl)C1=COCCO1 | -14.4
CC1(c2ccccc2)NC(=O)N(CC(=O)Nc2cc(Cl)ccc2N2CCOCC2)C1=O (stereo unspecified) | 5.62
CCN(CC)c1ccc(S(=O)(=O)N2CCOCC2)cc1NC(=O)CSc1cccc[n+]1[O-] | 5.13
CC(Nc1nc(N2CCN(CCO)CC2)nc2ccccc12)c1ccccc1 (stereo unspecified) | -7.35
CCc1ccccc1NC(=O)c1ccc2snnc2c1 | -10.4
CCCCCOc1ccc(CSC2=NCCN2)cc1[N+](=O)[O-] | 59.6
CCCCOc1ccc(CSC(=N)N)cc1[N+](=O)[O-] | 38.2
CC(Nc1nc(N2CCOCC2)nc2ccccc12)c1ccccc1 (stereo unspecified) | 31.7
CCC(=O)/C(=C(/O)c1ccccc1)c1nc2ccccc2[nH]1 | 3.53

====

ASSAY: inhibitors of intracellular T. cruzi growth, primary screen, luminescence, NIH3T3 host cells (AID 1885);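 note: signal also drops with host cell toxicity which is not excluded here; 0% = plate median of DMSO wells and 100% = zero luminescence signal; higher percent means less beta-gal luminescence so fewer parasites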
CONDITION CONTEXT: T. cruzi beta-gal in NIH3T3, luminescence, 90 h; hits give high values; concentration not given here
Among all 300,000 compounds or so, about 4,400 (1.5%) were called active. This excerpt belongs to a sample that is enriched for actives.

MOLECULE | OUTPUT UNIT | inhibition
Cc1ccc(S(=O)(=O)n2cccc2CO)cc1 | % | -12.2
Cc1ccccc1NC(=O)NCC1CCN(Cc2cccc(Cl)c2)CC1 | % | 57.5
COc1ccc(-c2nc3c(s2)CCc2onc(-c4ccc(Br)cc4)c2-3)cc1 | % | -2.05
Cc1csc(NC(=O)C2=COCCO2)n1 | % | -7.78
CN1CCN(/N=C/c2ccc(C#N)cc2)CC1 | % | 48.6
O=C(COc1ccc(Cl)cc1)NCCS(=O)(=O)N1CCN(c2ccc(F)cc2)CC1 | % | 11.2
CCNS(=O)(=O)c1ccc(NC(=O)Nc2cccc(OC)c2)cc1 | % | -9.54
COc1ccc(Cl)cc1NC(=O)CN(C)C(=O)c1cc2ccccc2cc1OC | % | 12.8
CC(C)COC(=O)c1ccc(NC(=O)C2C3C=CC(C3)C2C(=O)O)cc1 (stereo not given) | % | 1.59
CCc1ccccc1NC(=O)CN(C)S(=O)(=O)c1ccc2c(c1)c(=O)n(C)c(=O)n2C | % | -4.15
Cc1ccc2nc(SCC(=O)N3CC(C)OC(C)C3)nc(=O)n2c1 (stereo not given) | % | -6.75
Cc1ccc(-c2c[n+](CC(=O)Nc3ccccc3)c3n2CCC3)cc1 | % | -0.923
CCN1CCN(C(c2cccnc2)c2cc(Cl)c3cccnc3c2O)CC1 (stereo not given) | % | 57.7
COC(=O)c1cnc(Nc2cc(C)ccc2OC)c2ccccc12 | % | -8.82
Cc1ncc(CO)c(/C=N/NC(=O)c2cccc(S(=O)(=O)N3CCCC3)c2)c1O | % | -9.29
Oc1c(C(c2ccccn2)N2CCOCC2)ccc2cccnc12 (stereo not given) | % | 10.2
CCOc1cnc(C(=O)NNC(=O)c2ccccc2Br)o1 | % | -24
CC(=O)CC(CC(=O)NC1CCCCC1)c1ccccc1 (stereo not given) | % | -21.8
COc1ccc2nc(N3CCN(C(=O)c4ccc([N+](=O)[O-])o4)CC3)sc2c1 | % | 60.2
Cc1n[nH]c(=O)c2c(NC(=O)COC(=O)c3ncc(Cl)c(Cl)c3Cl)oc(C)c12 | % | -10.3
COc1ccc(Cc2nnc(SCC(=O)Nc3ccc(C)c(Cl)c3)[nH]c2=O)cc1 | % | 23.1
CCc1cccc(C)c1NC(=O)COC(=O)CNC(=O)c1cccs1 | % | -15.5
COc1ccc(C(=NN)c2ccc(OC)cc2)cc1 | % | -17.9
CCCCn1c(N)c(N(Cc2ccccc2OC)C(=O)COc2cc(C)ccc2Cl)c(=O)[nH]c1=O | % | 6.73
CCCc1nc2c(c(=O)c3ccccc3n2C)c(=O)n1C1CCCCCC1 | % | 22.4
COc1ccc(Cc2cc(-c3ccc(F)cc3)n[nH]c2=O)cc1 | % | -6.16
CCOC(=O)c1ccc(NC(=O)c2ccc(NC(=O)C3CCCO3)cc2)cc1 (stereo not given) | % | 3.02
O=C(NCCC1CCCCN1S(=O)(=O)c1ccccc1)C(=O)NCC1CCCO1 (stereo not given) | % | -5.32
COc1cccc2sc(Nc3nc(C)c(C(C)=O)s3)nc12 | % | 89.1
Cc1ccc(S(=O)(=O)N(C)C)cc1NC(=O)COC(=O)/C=C/c1cccs1 | % | -8.51
O=[N+]([O-])c1ccc2oc(-c3cccc(O)c3)nc2c1 | % | -23.1
O=C(c1ccc2nc(N3CCOCC3)sc2c1)N1CCN(c2ccc(Cl)cc2)CC1 | % | 2.47
c1ccc(NCc2cccc3ccccc23)nc1 | % | 1.93
CCCCCCCCCCCCN1[C@@H](CC(C)=O)c2cc(F)cc(F)c2S1(=O)=O | % | 39.5
CSc1ccccc1NC(=O)C(C)N1C(=O)c2ccccc2S1(=O)=O (stereo not given) | % | -1.05
O=C(COC(=O)c1ncc(Cl)c(Cl)c1Cl)NC1CCS(=O)(=O)C1 (stereo not given) | % | -20.7
Cc1ccc(NS(=O)(=O)c2ccc3c(c2)NC(=O)CO3)cc1 | % | 5.83
CCOC(=O)c1sc(=S)n2c1[nH]c(=O)c1ccc(C(=O)OC)cc12 | % | 4.87
CC(C)c1nc(SCC(=O)NC(=O)NC(C)(C)C)n[nH]1 | % | -2.85
Cc1ccc(-c2csc(NC(=O)C3=COCCO3)n2)cc1C | % | 71.6
O=C(OCCOCn1cc(Br)c(=O)[nH]c1=O)c1ccccc1 | % | -6.18
Cc1ccccc1C(=O)NNC(=O)CN1C(=O)c2ccccc2C1=O | % | -15.4
CCCc1cc(=O)[nH]c(SCC(=O)c2c(N)n(CC(C)C)c(=O)n(C)c2=O)n1 | % | -8.24
CCOC(=O)N1CCN(C(c2cccnc2)c2ccc3cccnc3c2O)CC1 (stereo not given) | % | 30.1
CCN(CC(=O)Nc1cc(Cl)ccc1C)C(=O)CN1C(=O)NC2(CCCC2)C1=O | % | 2.7

====

ASSAY: inhibitors of intracellular T. cruzi growth, primary screen, luminescence, NIH3T3 host cells (AID 1885);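 note: signal also drops with host cell toxicity which is not excluded here; 0% = plate median of DMSO wells and 100% = zero luminescence signal; higher percent means less beta-gal luminescence so fewer parasites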
CONDITION CONTEXT: T. cruzi beta-gal in NIH3T3, luminescence, 90 h; hits give high values; concentration not given here
The whole screen tested about 300,000 compounds, of which about 4,400 (1.5%) were called active. The list comes from a sample in which actives are over-represented; it also holds close analogues and randomly drawn compounds.

COMPOUND | inhibition / %
COc1ccc(-c2ccc(Nc3ccc(S(=O)(=O)N4CCCC4)cc3)nn2)cc1OC | 14.2
Cc1c(NC(=O)CSc2cccc3cccnc23)c(=O)n(-c2ccccc2)n1C | 67.7
O=C1c2ccccc2C(=O)N1CC1c2ccccc2CCN1S(=O)(=O)c1ccccc1 (configuration not stated) | -2.22
Cc1ccc(C2CC(c3cccc(C)c3)n3nc(N)nc3N2)cc1 (configuration not stated) | 36.3
Cc1c(C(=O)NC(=S)NCc2cccnc2)oc2ccccc12 | 63.2
Cc1c(NC(=O)CSc2nnnn2-c2ccc(C(=O)O)cc2)c(=O)n(-c2ccccc2)n1C | -12.6
COc1ccc(C2CC(c3ccc(C)cc3)Nc3nc(N)nn32)cc1 (configuration not stated) | 61.3
CCOc1ccc(C(=O)CCC(=O)NC2=NCCS2)cc1 | 10.9
O=C(Nc1ccc(C(=O)O)cc1)/C(=C\c1ccccc1)NC(=O)c1ccc(Br)cc1 | -8.09
COc1ccc(-c2cc(C(F)(F)F)nc(NCc3cccnc3)n2)cc1 | 49.2
CC(=O)c1cc(CN2CCC(n3nccc3NC(=O)c3ccccc3Cl)CC2)cs1 | 9.08
COc1ccc(-c2cc(C(F)(F)F)nc(S(C)(=O)=O)n2)cc1OC | 60.3
Cc1c(C(=O)OCC(=O)N2CCCC2=O)oc2ccccc12 | -3.64
COc1cc(C(=O)N2CCN(C3CCC(C)CC3)CC2)cc(OC)c1OC (configuration not stated) | 25.8
CC(C)CN(C(=O)Cn1c(=O)cnc2ccccc21)C1CCS(=O)(=O)C1 (configuration not stated) | 11
Cc1ccc(C(=O)NC(=S)NCc2cccnc2)cc1 | 14.1
CC(=O)c1ccc(S(=O)(=O)NC2CC(=O)N(c3ccc4c(c3)OCCO4)C2)cc1 (configuration not stated) | 0.0508
CCOC(=O)C1(CCOC)CCN(Cc2cc3ccccc3s2)CC1 | 6.96
COc1ccc(CN2CC[C@H]3C=CC[C@@H](C(=O)N4CCOCC4)[C@H]3C2=O)cc1OC | 0.915
Cc1ccc(NC(=O)CSc2cccc3cccnc23)c(C)c1 | 26.2
Cc1ccc(C2CC(c3cccc(Br)c3)n3nc(N)nc3N2)cc1 (configuration not stated) | 14.7
NC(N)=N/N=C/c1ccc(Cl)c([N+](=O)[O-])c1 | 60.6

Origin of the recorded values: PubChem BioAssay AID1885
